Values from patent US4523033A

test: Tissue distribution of radioactivity in rats after intravenous administration; assay type: in vivo; settings: rat, lungs, iv, 1 d, read-out: Distribution of radioactivity, Lungs
OBSERVED PROPERTY: tissue uptake at 24 h (%ID/g)
// return numeric value only (unit: %ID/g, not printed)

Ask: Look up tissue uptake at 24 h for this compound: O=C(O)CCCC[Te]CCCCCCCCCc1ccc([125I])cc1
Reply: 0.89

----------
assay: Tissue distribution of radioactivity in rats after intravenous administration; format: in vivo; details: rat, blood, iv, 2 h, read-out: Distribution of radioactivity, Blood
OBSERVED PROPERTY: tissue uptake at 2 h (%ID/g)
Provide only the numeric value, understood in %ID/g.

Ask: I have this compound here, O=C(O)CCCC[Te]CCCCCCCCCc1ccc([125I])cc1 , and I need its recorded tissue uptake at 2 h.
Reply: 0.42
